Where do the numbers come from? From patent US20230272056A1.

# test.system: T1, human LAP-TGFB1 Fc fusion (human)
# T1 construct: also called human LAP-TGFβ1-Fc; human LAP-TGFβ-Fc isoform 1
# T1 sequence (chain, as listed by the source limits assumed): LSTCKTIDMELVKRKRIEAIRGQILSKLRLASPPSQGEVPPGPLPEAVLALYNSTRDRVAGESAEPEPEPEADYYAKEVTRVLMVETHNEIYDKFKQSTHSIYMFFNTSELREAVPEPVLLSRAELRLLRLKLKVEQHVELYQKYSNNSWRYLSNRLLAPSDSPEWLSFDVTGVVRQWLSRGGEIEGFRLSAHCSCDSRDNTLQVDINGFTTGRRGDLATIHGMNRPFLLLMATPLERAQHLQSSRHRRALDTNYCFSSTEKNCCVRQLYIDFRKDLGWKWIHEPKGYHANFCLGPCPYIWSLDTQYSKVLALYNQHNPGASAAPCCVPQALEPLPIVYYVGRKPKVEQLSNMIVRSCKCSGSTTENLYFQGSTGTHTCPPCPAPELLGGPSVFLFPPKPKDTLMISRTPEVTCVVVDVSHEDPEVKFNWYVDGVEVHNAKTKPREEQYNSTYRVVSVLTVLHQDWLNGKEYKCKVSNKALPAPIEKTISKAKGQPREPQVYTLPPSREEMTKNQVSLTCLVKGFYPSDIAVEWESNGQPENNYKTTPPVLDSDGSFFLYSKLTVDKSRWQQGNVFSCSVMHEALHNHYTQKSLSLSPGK
# assay.comment: BLI off-rate screen
Kindly state Binding response for each of the entries shown.
Give bare numbers, in nm.

Before answering, review these 2 worked examples.
# binder, units.label, Binding response
data = [
    ("VL L94Q (33BIT) (Fab, V domains shown, Heavy chain: parental 20E6 Fab HC, implied) VH: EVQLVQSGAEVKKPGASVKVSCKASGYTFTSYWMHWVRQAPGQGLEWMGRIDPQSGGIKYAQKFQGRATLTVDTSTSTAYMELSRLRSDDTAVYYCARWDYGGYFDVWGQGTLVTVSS VL: DIQMTQSPSSLSASVGDRVTITCRASQDITNYLNWYQQKPGKAVKLLIYYTSRLHSGVPSRFSGSGSGTDYTLTISSLQPEDFATYFCQQGDTQPWTFGQGTKLEIKR", "nm", 0.341),
    ("VL T30D (37BIT) (Fab, V domains shown, Heavy chain: parental 20E6 Fab HC, implied) VH: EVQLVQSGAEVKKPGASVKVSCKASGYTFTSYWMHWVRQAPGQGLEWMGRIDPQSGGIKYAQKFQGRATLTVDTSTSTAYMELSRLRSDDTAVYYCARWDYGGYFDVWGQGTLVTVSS VL: DIQMTQSPSSLSASVGDRVTITCRASQDIDNYLNWYQQKPGKAVKLLIYYTSRLHSGVPSRFSGSGSGTDYTLTISSLQPEDFATYFCQQGDTLPWTFGQGTKLEIKR", "nm", 0.182),
]

Hi! Can you tell me Binding response for each of these binders?
1. VH G57D (27BIT) (Fab, V domains shown, Light chain: parental 20E6 LC, implied) VH: EVQLVQSGAEVKKPGASVKVSCKASGYTFTSYWMHWVRQAPGQGLEWMGRIDPQSGDIKYAQKFQGRATLTVDTSTSTAYMELSRLRSDDTAVYYCARWDYGGYFDVWGQGTLVTVSS VL: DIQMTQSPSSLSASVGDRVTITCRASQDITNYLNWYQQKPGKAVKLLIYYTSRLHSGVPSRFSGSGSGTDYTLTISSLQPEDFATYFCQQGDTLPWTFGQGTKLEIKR
2. VH S55E (26BIT) (Fab, V domains shown, Light chain: parental 20E6 LC, implied) VH: EVQLVQSGAEVKKPGASVKVSCKASGYTFTSYWMHWVRQAPGQGLEWMGRIDPQEGGIKYAQKFQGRATLTVDTSTSTAYMELSRLRSDDTAVYYCARWDYGGYFDVWGQGTLVTVSS VL: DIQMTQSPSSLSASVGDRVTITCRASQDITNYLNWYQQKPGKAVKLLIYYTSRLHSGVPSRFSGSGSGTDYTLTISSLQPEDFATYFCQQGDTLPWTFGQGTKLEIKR

Ans:
[0.582, 0.489]
